# Method Notes: Induction of mitochondrial uncoupling activity in rat L6 cells assessed as increase in oxygen consumption rate at 0.37 to 200 uM measured after 90 mins by agilent Seahorse XF analyzer relative to BAM15
# Type: functional
# Run Parameters: dose 0.37-200 µM, 1.5 h
Label scheme for Activity: lower than 40% is condition not met, 40% and above is condition met.

In plain terms: is recorded Activity at least 40% for Oc1nc2nonc2cc1Nc1ccccc1C(F)(F)F ? condition not met

Next compound: Oc1nc2nonc2cc1Nc1ccc(OC(F)(F)F)cc1C(F)(F)F condition met

Next compound: Oc1nc2nonc2cc1Nc1cccc(S(F)(F)(F)(F)F)c1 condition not met

Next compound: Oc1nc2nonc2cc1Nc1cc(OC(F)(F)F)c(F)cc1F condition met

Next compound: Oc1nc2nonc2cc1Nc1cc(C(F)(F)F)c(F)cc1F condition met

Next compound: Oc1nc2nonc2cc1Nc1ccc(F)c(F)c1F condition not met

Next compound: Oc1nc2nonc2cc1Nc1cc(C(F)(F)F)cc(C(F)(F)F)c1 condition not met

Next compound: Oc1nc2nonc2cc1Nc1cccc(F)c1 condition not met

Next compound: Oc1nc2nonc2cc1Nc1cc(C(F)(F)F)ccc1C(F)(F)F condition met

Next compound: Oc1nc2nonc2cc1Nc1cc(F)ccc1F condition not met

* * *

Would you mind telling me the reported Cmax of each entry?
# Method Notes: Cmax in C57BL/6 mouse at 10 mg/kg, po administered via gavage measured upto 24 hrs by LC/MS-MS analysis
# Assay type: ADME, organism-based
# Set-up: dose 10 mg/kg, time < 24 hrs, route po
# Run Parameters: in vivo
Numeric answer only, unit µM assumed.

Form field: reported Cmax of Oc1nc2nonc2cc1Nc1cc(C(F)(F)F)c(F)cc1F 25

Next molecule: Oc1nc2nonc2cc1Nc1c(F)c(F)c(C(F)(F)F)c(F)c1F 21

Next molecule: Oc1nc2nonc2cc1Nc1cc(C(F)(F)F)ccc1F 46

Next molecule: Oc1nc2nonc2cc1Nc1ccc(OC(F)(F)F)cc1C(F)(F)F 10

Next molecule: Oc1nc2nonc2cc1Nc1cc(C(F)(F)F)ccc1C(F)(F)F 29

Next molecule: Oc1nc2nonc2cc1Nc1c(F)c(F)c(F)c(F)c1F 87

* * *

Would you mind telling me the reported Activity of each entry?
# Method Notes: Induction of mitochondrial uncoupling activity in rat L6 cells assessed as increase in oxygen consumption rate at 0.37 to 200 uM measured after 90 mins by agilent Seahorse XF analyzer relative to BAM15
# Format: functional
# Run Parameters: dose 0.37-200 µM, 1.5 h
Numeric answer only, unit % assumed.

Form field: reported Activity of Oc1nc2nonc2cc1Nc1ccc(C(F)(F)F)cc1C(F)(F)F 34

Next molecule: Oc1nc2nonc2cc1Nc1cccc(OC(F)(F)F)c1F 30

Next molecule: Oc1nc2nonc2cc1Nc1ccc(S(F)(F)(F)(F)F)cc1 4

Next molecule: Oc1nc2nonc2cc1Nc1cc(F)ccc1OC(F)(F)F 13

Next molecule: Oc1nc2nonc2cc1Nc1ccc(OC(F)(F)F)cc1F 11

* * *

# Method Notes: Induction of mitochondrial uncoupling activity in rat L6 cells assessed as increase in oxygen consumption rate measured after 90 mins by agilent Seahorse XF analyzer
# Format: functional, cell-based
Would you mind telling me the reported pEC50 of each entry?
Just the number, please, no unit after it.

Form field: reported pEC50 of Oc1nc2nonc2cc1Nc1cc(F)c(C(F)(F)F)c(F)c1 5.9

Next compound: Oc1nc2nonc2cc1Nc1ccc(C(F)(F)F)c(F)c1 6.1

Next compound: Oc1nc2nonc2cc1Nc1cc(C(F)(F)F)c(F)cc1F 5.5

Next compound: Oc1nc2nonc2cc1Nc1cc(C(F)(F)F)ccc1F 5.4

Next compound: Oc1nc2nonc2cc1Nc1cc(F)c(F)c(F)c1 5.6

Next compound: Oc1nc2nonc2cc1Nc1cc(F)ccc1OC(F)(F)F 5.9

Next compound: O=S(=O)(c1ccc(Nc2cc3nonc3nc2O)cc1)C(F)(F)F 6

Next compound: Oc1nc2nonc2cc1Nc1ccc(OC(F)(F)F)cc1 5.8

Next compound: Oc1nc2nonc2cc1Nc1cc(F)ccc1C(F)(F)F 5.1

Next compound: Oc1nc2nonc2cc1Nc1cc(OC(F)(F)F)c(F)cc1F 5.7

Next compound: Oc1nc2nonc2cc1Nc1cc(C(F)(F)F)cc(C(F)(F)F)c1 5.8

Next compound: Oc1nc2nonc2cc1Nc1cccc(S(F)(F)(F)(F)F)c1 5.9

Next compound: Oc1nc2nonc2cc1Nc1ccc(OC(F)(F)F)c(F)c1 5.6

Next compound: Oc1nc2nonc2cc1Nc1cc(OC(F)(F)F)ccc1F 5.5

Next compound: Oc1nc2nonc2cc1Nc1c(F)cc(F)cc1F 4.4

Next compound: Oc1nc2nonc2cc1Nc1cccc(C(F)(F)F)c1 5.8

Next compound: Oc1nc2nonc2cc1Nc1ccccc1C(F)(F)F 4.8

Next compound: Oc1nc2nonc2cc1Nc1ccc(C(F)(F)F)cc1C(F)(F)F 6

Next compound: Oc1nc2nonc2cc1Nc1c(F)c(F)c(F)c(F)c1F 4.8

Next compound: Oc1nc2nonc2cc1Nc1ccc(OC(F)(F)F)cc1C(F)(F)F 5.5

Next compound: Oc1nc2nonc2cc1Nc1cc(F)ccc1F 4.7

Next compound: Oc1nc2nonc2cc1Nc1c(F)cccc1C(F)(F)F 4.3

Next compound: Oc1nc2nonc2cc1Nc1c(F)c(F)c(C(F)(F)F)c(F)c1F 5.9

Next compound: Oc1nc2nonc2cc1Nc1ccc(F)c(F)c1 4.2

Next compound: Oc1nc2nonc2cc1Nc1cccc(F)c1C(F)(F)F 5.3

Next compound: Oc1nc2nonc2cc1Nc1ccc(S(F)(F)(F)(F)F)cc1 6.2

Next compound: Oc1nc2nonc2cc1Nc1cccc(OC(F)(F)F)c1 5.3

Next compound: Oc1nc2nonc2cc1Nc1cc(F)cc(C(F)(F)F)c1 6.1

Next compound: Oc1nc2nonc2cc1Nc1ccc(C(F)(F)F)nc1 4.7
